Where these numbers come from: ChEMBL document CHEMBL1201862

test system: OVCAR-8; assay: NCI tumour cell line growth inhibition, 48 h
Activity calls are given as the source filed them. Rule as the data show it: active = GI50 up to about 1.1 µM and inactive = higher.
Outcome field: choose from True for active, False for inactive

compound="COc1cccc2c1C(=O)c1c(O)c3c(c(O)c1C2=O)C[C@H](O)C[C@@H]3OC1CC(N)C(O)C(C)O1 (stereo partly specified)" assigned_class=True
compound=O=C1C=C(N2CCN(c3ncccn3)CC2)C(=O)c2c(O)ccc(O)c21 assigned_class=False
compound="OCCN=C1c2ccccc2C2C(c3ccccc31)C1c3ccccc3C(=NCCO)c3ccccc3C21 (stereo unspecified)" assigned_class=False

Query string: Can you look up the reported call for "CCCc1c(Cl)nc(Cl)nc1Cl" for me?
Result string: True

Query string: Repeat with "CC1CC[P+](c2ccccc2)(c2ccccc2)CC1"
Result string: False

Query string: Repeat with OCC1C2CCC3(OCCO3)C12 (stereo unspecified)
Result string: False

Query string: Repeat with "COc1cc(C2C(C(=O)Nc3ccc(Cl)c(Cl)c3)=C(C)NC(C)=C2C(=O)Nc2ccc(Cl)c(Cl)c2)ccc1O"
Result string: False

Query string: Repeat with "COC(=O)CN1Cc2cc(C)cc(c2O)CN(CC(=O)OC)Cc2cc(C)cc(c2O)CN(CC(=O)OC)Cc2cc(C)cc(c2O)C1"
Result string: False

Query string: Repeat with "Nc1cccc(Nc2nc3ccccc3nc2NS(=O)(=O)c2ccccc2)c1"
Result string: False

Query string: Repeat with O=C1C2CC=CCC2C(=O)N1n1c(-c2ccccc2)n[nH]c1=O (stereo unspecified)
Result string: False

Query string: Repeat with "CCOC(=O)Nc1nn[nH]c1Cl"
Result string: False

Query string: Repeat with "Cc1cc2c(c(C(=O)NCC(=O)O)c1)Oc1c(cc(C)cc1C(=O)NCC(=O)O)S2"
Result string: False

Query string: Repeat with "Cc1ccc(/C=N/Nc2ccc3ccccc3n2)s1"
Result string: False

Query string: Repeat with "O=C(c1cccs1)c1nccc2c1cnc1ccccc12"
Result string: False

Query string: Repeat with "O=C1Cc2c([nH]c3ccccc23)-c2cc(Br)ccc2N1"
Result string: False

Query string: Repeat with "Nc1nc(NCCO)c(N=O)c(=O)[nH]1"
Result string: False

Query string: Repeat with OCC(CCc1ccccc1I)C1=CCC2(CC1)OCCO2 (stereo unspecified)
Result string: False

Query string: Repeat with "O=C(CSc1nc(-c2ccccc2)c(-c2ccccc2)[nH]1)NNC(=S)Nc1ccccc1"
Result string: False

Query string: Repeat with "O=[N+]([O-])c1ccc(N2CCC(CCCC3CCN(c4ccc([N+](=O)[O-])cc4[N+](=O)[O-])CC3)CC2)c([N+](=O)[O-])c1"
Result string: False

Query string: Repeat with CC1(C)CCC2(C(=O)OC3OC(CO)C(O)C(O)C3O)CCC3(C)C(=CCC4C5(C)CCC(OC6OC(CO)C(O)C(O)C6O)C(C)(C)C5CCC43C)C2C1 (stereo unspecified)
Result string: False

Query string: Repeat with "CCN(CC)C(=S)/N=C(\SC(=S)N(CC)CC)c1ccccc1"
Result string: False
